These records show pIC50 for Poly [ADP-ribose] polymerase 1 (Homo sapiens, UniProt P09874).
Expect pIC50 as a plain number equal to -log10 of the molar concentration.

A selection of reference data follows.
entry_smiles=Cc1cccc2c(O)nc(-c3ccc(N)cc3)nc12 recorded_measurement=6.30
entry_smiles=Cc1cccc2c(=O)[nH]c(-c3ccccc3)nc12 recorded_measurement=6.10

The molecule `COc1ccc(-c2nc3c(C)cccc3c(=O)[nH]2)cc1` , when measured on Poly [ADP-ribose] polymerase 1 (Homo sapiens, UniProt P09874), yielded pIC50 of 6.05

* * *

Target: UniProt:O95271
Experiment: Inhibition of human tankyrase1 after 30 mins by spectrophotometry
Friendly reminder: IC50 below 40 nM is fulfilled, at or above is not fulfilled.

# count of solved cases: 2
entry_smiles=COc1ccc(-c2nc3c(C)cccc3c(=O)[nH]2)cc1 target=UniProt:O95271 category_label=fulfilled
entry_smiles=Cc1cccc2c(O)nc(-c3ccc([N+](=O)[O-])cc3)nc12 target=UniProt:O95271 category_label=fulfilled

Is IC50 of `Cc1cccc2c(O)nc(-c3ccc(C(F)(F)F)cc3)nc12` strictly below 40 nM?
not fulfilled

Is IC50 of `Cc1cccc2c(=O)[nH]c(-c3ccc(F)cc3)nc12` strictly below 40 nM?
not fulfilled

Is IC50 of `Cc1cccc2c(=O)[nH]c(-c3ccc(Cl)cc3)nc12` strictly below 40 nM?
fulfilled

* * *

Property: inhibition; scope: individual molecules
Molecular target: Poly [ADP-ribose] polymerase tankyrase-2 (Homo sapiens) (UniProt Q9H2K2)
Sequence (Q9H2K2 whole entry): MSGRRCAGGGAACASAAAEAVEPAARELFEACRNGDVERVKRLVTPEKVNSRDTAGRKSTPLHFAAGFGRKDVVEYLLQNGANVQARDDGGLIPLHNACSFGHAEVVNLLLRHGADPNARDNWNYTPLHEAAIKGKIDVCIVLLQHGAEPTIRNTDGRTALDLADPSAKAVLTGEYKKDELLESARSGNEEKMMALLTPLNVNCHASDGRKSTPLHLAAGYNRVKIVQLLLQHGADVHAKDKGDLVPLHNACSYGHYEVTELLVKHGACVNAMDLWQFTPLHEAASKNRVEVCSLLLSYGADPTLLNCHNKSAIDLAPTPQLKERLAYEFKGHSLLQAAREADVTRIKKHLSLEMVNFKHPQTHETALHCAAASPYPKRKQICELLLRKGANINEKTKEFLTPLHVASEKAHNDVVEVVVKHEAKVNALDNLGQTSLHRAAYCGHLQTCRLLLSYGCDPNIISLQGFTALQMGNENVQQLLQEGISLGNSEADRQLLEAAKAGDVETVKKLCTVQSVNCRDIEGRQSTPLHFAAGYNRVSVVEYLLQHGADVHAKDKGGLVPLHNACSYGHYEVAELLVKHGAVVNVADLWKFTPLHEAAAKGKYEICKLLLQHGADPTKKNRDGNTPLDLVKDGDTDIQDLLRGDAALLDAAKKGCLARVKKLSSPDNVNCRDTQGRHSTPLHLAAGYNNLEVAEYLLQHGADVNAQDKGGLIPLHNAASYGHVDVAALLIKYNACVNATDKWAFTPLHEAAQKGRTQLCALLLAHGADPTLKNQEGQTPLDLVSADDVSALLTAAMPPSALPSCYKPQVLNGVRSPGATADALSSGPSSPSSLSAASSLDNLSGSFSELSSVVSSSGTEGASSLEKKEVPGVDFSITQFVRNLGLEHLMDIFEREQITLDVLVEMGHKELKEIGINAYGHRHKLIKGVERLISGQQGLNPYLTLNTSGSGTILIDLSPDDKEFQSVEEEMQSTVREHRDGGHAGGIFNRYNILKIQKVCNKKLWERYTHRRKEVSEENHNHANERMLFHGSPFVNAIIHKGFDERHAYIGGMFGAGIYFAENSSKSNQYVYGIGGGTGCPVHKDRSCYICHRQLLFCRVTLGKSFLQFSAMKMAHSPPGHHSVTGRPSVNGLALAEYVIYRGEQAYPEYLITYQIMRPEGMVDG
Test: Inhibition of human tankyrase2 at 10 nM after 2 hrs by spectrophotometry
Write down the numeric answer in % and omit the unit.

entry_smiles=O=c1[nH]c(-c2ccc([N+](=O)[O-])cc2)nc2ccccc12 recorded_measurement=2
entry_smiles=Cc1cccc2c(=O)[nH]c(-c3ccc(Cl)cc3)nc12 recorded_measurement=49
entry_smiles=COc1cccc2c(=O)[nH]c(-c3ccc(Cl)cc3)nc12 recorded_measurement=25

Switching to the query record.
Quick note, inhibition for `O=c1[nH]c(-c2ccc(Cl)cc2)nc2c(O)cccc12` landed at 32

* * *

Property: Ratio IC50; scope: individual compounds
Species: Homo sapiens
Assay: Selectivity ratio of IC50 for PARP1 (unknown origin) to IC50 for human tankyrase1
Please give only the number in your answer, with no unit.

entry_smiles=Cc1cccc2c(O)nc(-c3ccc(N)cc3)nc12 recorded_measurement=14

Quick note, Ratio IC50 for `Cc1cccc2c(O)nc(-c3ccc(O)cc3)nc12` landed at 23

* * *

Molecular target: Poly [ADP-ribose] polymerase tankyrase-2 (Homo sapiens, UniProt Q9H2K2)
Sequence (Q9H2K2 whole entry): as above
property.measured: IC50 (nM)
Write down the numeric answer in nM and omit the unit.

A selection of reference data follows.
entry_smiles=Cc1cccc2c(O)nc(-c3ccc(N)cc3)nc12 recorded_measurement=3.3
entry_smiles=Cc1cccc2c(=O)[nH]c(-c3ccc(Cl)cc3)nc12 recorded_measurement=33
entry_smiles=Cc1ccc(-c2nc3c(C)cccc3c(=O)[nH]2)cc1 recorded_measurement=6.7
entry_smiles=Cc1cccc2c(=O)[nH]c(-c3ccc(Br)cc3)nc12 recorded_measurement=5.5
entry_smiles=Cc1cccc2c(=O)[nH]c(-c3ccc(O)cc3)nc12 recorded_measurement=3

The molecule `Cc1cccc2c(=O)[nH]c(-c3ccc(F)cc3)nc12` , when measured on Poly [ADP-ribose] polymerase tankyrase-2 (Homo sapiens, UniProt Q9H2K2), yielded IC50 of 40

The molecule `COc1ccc(-c2nc3c(C)cccc3c(=O)[nH]2)cc1` , when measured on Poly [ADP-ribose] polymerase tankyrase-2 (Homo sapiens, UniProt Q9H2K2), yielded IC50 of 12

The molecule `Cc1cccc2c(O)nc(-c3ccc(C(F)(F)F)cc3)nc12` , when measured on Poly [ADP-ribose] polymerase tankyrase-2 (Homo sapiens, UniProt Q9H2K2), yielded IC50 of 10
